Test system: Aβtotal
ASSAY NAME: Method 2: Aβtotal Alphalisa in supernatant of SKNBE2 cells carrying APP 695-wild type (Table 7c)
Format: cell-based
MEASUREMENT SETUP: Method 2, Alphalisa, overnight incubation
pIC50: −log10 of the molar value.
List of pIC50 values.
ENDPOINT LABEL: pIC50

> print(dat)
                                smiles.input  assayed.target  recorded.measurement
 1  Cc1ncc(-c2ccc(Nc3cccn4c(C)c(-c5ccccc5Cl)nc34)cn2)o1         Aβtotal                < 5.00
 2  Cc1cc(-c2ccc(Nc3cccn4c(C)c(-c5ccccc5Cl)nc34)cc2)ccn1         Aβtotal                  5.06
 3  Cc1ncc(-c2ccc(Nc3cc(F)cc4c3nc(-c3ccc(F)cc3)n4C)cn2)o1         Aβtotal                < 5.00
 4  COc1nc(Nc2cccc3c2nc(-c2ccc(F)cc2)n3C(C)C)ccc1-c1cnn(C)c1         Aβtotal                < 5.00
 5  Cc1ncc(-c2ccc(Nc3cc(C(F)(F)F)cc4c3nc(-c3ccc(F)cc3)n4C)cn2)o1         Aβtotal                < 5.00
 6  Cc1ncc(-c2ccc(Nc3cc(C(C)C)nc4c3nc(-c3ccc(F)cc3)n4C)cn2)o1         Aβtotal                < 5.00
 7  COc1cc(Nc2nc(C(F)(F)F)cn3cc(C)nc23)ccc1-c1cnc(C)o1         Aβtotal                < 5.00
 8  Cc1ncc(-c2ccc(Nc3cccc4c3nc(C3(c5ccc(Cl)cc5)CC3)n4C)cn2)o1         Aβtotal                  5.05
 9  Cc1ncoc1-c1ccc(Nc2cccc3c2nc(-c2ccc(Cl)s2)n3C(C)C)cn1         Aβtotal                < 5.00
10  COc1cc(Nc2cc(C(C)C)nc3c2nc(-c2ccc(F)cc2)n3C)ccc1-c1cnc(C)o1         Aβtotal                < 5.00
11  Cc1ncc(-c2ccc(Nc3nccc4c3nc(-c3ccc(F)cc3)n4C(C)C)cc2)o1         Aβtotal                < 5.00
12  COc1cc(Nc2cccc3c2nc(-c2ccc(F)cc2)n3C(C)C)ccc1-c1oc(C)nc1C         Aβtotal                < 5.00
13  COc1cc(Nc2nc(C)cc3c2nc(-c2ccc(F)cc2)n3C)ccc1-c1ccnc(C)c1         Aβtotal                  5.44
14  COc1cc(Nc2cc(C#N)nc3c2nc(-c2ccc(F)cc2)n3C)ccc1-c1cnc(C)o1         Aβtotal                < 5.00
15  COc1cc(Nc2cc(F)cn3cc(C4CCOCC4)nc23)ccc1-c1ocnc1C         Aβtotal                < 5.00
16  Cc1cc(-c2ccc(Nc3nc(C)cc4c3nc(-c3ccc(F)cc3)n4C)cc2)ccn1         Aβtotal                  5.20
